B1: library; a variant is named by its letters at N, in order (parent)
chain: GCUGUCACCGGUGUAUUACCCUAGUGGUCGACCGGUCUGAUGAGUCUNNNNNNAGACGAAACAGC

# Variants of: B1
# method: normalized RNA/DNA level with ligand (relative to sTRSVctl = 100) (log10 (% of sTRSVctl)); ligand: hypoxanthine (xanthine aptamer); higher = less ribozyme self-cleavage, higher mRNA level
# applied-conditions: ligand concentration (+) RNA-Seq: 5 mM, HEK293T, reporter: mCherry (pCS4076), ligand present: yes
Entries and their normalized RNA/DNA level with ligand (log10) values follow.
Form field (numeric): enter value without unit.

Recorded normalized RNA/DNA level with ligand (log10), per entry:
GCUGUCACCGGUGUAUUACCCUAGUGGUCGACCGGUCUGAUGAGUCUAUGCUGAGACGAAACAGC [AUGCUG] :: 1.9
GCUGUCACCGGUGUAUUACCCUAGUGGUCGACCGGUCUGAUGAGUCUCGGCUCAGACGAAACAGC [CGGCUC] :: 2.04
GCUGUCACCGGUGUAUUACCCUAGUGGUCGACCGGUCUGAUGAGUCUACACAGAGACGAAACAGC [ACACAG] :: 1.84
GCUGUCACCGGUGUAUUACCCUAGUGGUCGACCGGUCUGAUGAGUCUCUCUUGAGACGAAACAGC [CUCUUG] :: 1.93
GCUGUCACCGGUGUAUUACCCUAGUGGUCGACCGGUCUGAUGAGUCUGCGUUGAGACGAAACAGC [GCGUUG] :: 1.78

Requested field: normalized RNA/DNA level with ligand (log10). Item: GCUGUCACCGGUGUAUUACCCUAGUGGUCGACCGGUCUGAUGAGUCUUGGUUUAGACGAAACAGC [UGGUUU]
1.95

Subsequent entry: GCUGUCACCGGUGUAUUACCCUAGUGGUCGACCGGUCUGAUGAGUCUGGCCGGAGACGAAACAGC [GGCCGG]
1.95
